targetDesc: SARS2 protease (Severe acute respiratory syndrome coronavirus 2, UniProt P0DTD1)
Construct: SARS2 protease was added to a final concentration of 30 nM
assayExplanation: SARS-CoV-2 protease inhibition assay (SARS2 FRET protease assay)
Format: biochemical
testContext: IC50 (μM), SARS2 protease 30 nM, peptide substrate 1.3 μM, 120 minutes at 37° C., compounds 20 μM to 0.075 nM
metricName: log10(IC50) (log10 of the value in µM)

[[record]]
molecule = "CCNC(=O)C(=O)[C@H](C[C@@H]1CCNC1=O)NC(=O)[C@H](CC1CCCCC1)NC(=O)O[C@H](c1ccccc1)C(F)(F)c1cccc(Cl)c1 [Compound A134]"
valueobserved = 0.07

[[record]]
molecule = "O=C(N[C@@H](CC1CCCCC1)C(=O)N[C@@H](C[C@@H]1CCNC1=O)C(=O)C(=O)NC1CC1)OC(c1ccccc1)C(F)(F)c1cccc(Cl)c1 (stereo partly drawn) [Compound A21]"
valueobserved = -1.22

[[record]]
molecule = "O=C(N[C@@H](CC1CCCCC1)C(=O)N[C@@H](C[C@@H]1CCNC1=O)C(=O)C(=O)NC1CC1)OC(c1ccccc1)C(F)(F)c1cccc(F)c1 (stereo partly drawn) [Compound A74]"
valueobserved = -0.73

[[record]]
molecule = "CCNC(=O)C(=O)[C@H](C[C@@H]1CCNC1=O)NC(=O)[C@H](CC1CC1)NC(=O)O[C@@H](c1ccccc1)C(F)(F)c1cccc(Cl)c1 [Compound A174]"
valueobserved = -2.85

[[record]]
molecule = "CCCC[C@H](NC(=O)O[C@@H](c1ccc(F)cc1)C(F)(F)c1cccc(Cl)c1)C(=O)N[C@H](C=O)C[C@@H]1CCNC1=O [Compound A159]"
valueobserved = -2.52

[[record]]
molecule = "CCCC(=O)OC([C@H](C[C@@H]1CCNC1=O)NC(=O)[C@H](CC1CCCCC1)NC(=O)OC(c1ccccc1)C(F)(F)c1cccc(Cl)c1)S(=O)(=O)O (stereo partly drawn) [Compound A113]"
valueobserved = -0.62


Where do the numbers come from? From patent US20240398757A1.
